- Measured target: growth factor receptors
- Test details: cell-based or functional assay
Measure name: p-Smad1/5/8 (%)

Example cases with answers are listed next.
| Binder | Units symbol | Meas value |
| --- | --- | --- |
| RNVQSRPTQVQLSPISILFI [GFR-binding compound of SEQ ID NO: 98] | % | 34 |
| AVPKASSAPTKLEPISILYL [GFR-binding compound of SEQ ID NO: 70] | % | 67 |
| ASAAPSSVPQALSSLSILFF [GFR-binding compound of SEQ ID NO: 67] | % | 38 |
| ASASPSSVSQDLEPLTILYY [GFR-binding compound of SEQ ID NO: 78] | % | 52 |
| SSVKSQPSRVHHSPISILFI [GFR-binding compound of SEQ ID NO: 97] | % | 39 |
| YVPKPSSAPTKLNAISVLYF [GFR-binding compound of SEQ ID NO: 99] | % | 66 |
| YVPKPSSTPTKLSPINMLYF [GFR-binding compound of SEQ ID NO: 66] | % | 38 |
| ASASPSSVSQDLSSLSILFF [GFR-binding compound of SEQ ID NO: 68] | % | 40 |

I = KVGKASSVPQKLEPLPIVYY [GFR-binding compound of SEQ ID NO: 84]
II = RNVQSRPTQVQLKPLSMLYV [GFR-binding compound of SEQ ID NO: 73]
III = NDEGLESVPTEESAISMLYL [GFR-binding compound of SEQ ID NO: 96]
IV = KASKASSVPQKLEPLPIVYY [GFR-binding compound of SEQ ID NO: 85]
Q: List these items ordered by p-Smad1/5/8 (%), big to small. Labels, requested order.
A: III, II, I, IV
